system: U251 CNS; assay: NCI-60 one-dose screen, 48 h (100 = growth as untreated, 0 = no growth, -100 = all killed); details: 10 µM
The panel holds about 83,000 compounds, 20% with a hit somewhere; the sample as a whole holds those more often.
Is growth at least 90%? Then Met. If not, Not met.

Solved cases (5 shown):
compound=CS(=O)(=O)Nc1ccc(OCc2nnc(-c3ccc(Cl)cc3)o2)c(F)c1 target="U251 CNS" answerlabel=Met
compound=COc1ccc(-c2nc(-c3nc4ccc(OC)cc4[nH]3)c3ccccn23)cc1 target="U251 CNS" answerlabel="Not met"
compound=C[C@]12CC[C@H]3[C@@H](CCC4=CC(=O)CC[C@@]43C)[C@@H]1CC[C@@H]2c1csc(N)n1 target="U251 CNS" answerlabel="Not met"
compound=O=C(O)CNS(=O)(=O)c1ccc(OCCOc2ccc(S(=O)(=O)NCC(=O)O)cc2)cc1 target="U251 CNS" answerlabel=Met
compound="NC(=O)C1CCCN(Cc2c[nH]c3ccccc23)C1 (stereo not given)" target="U251 CNS" answerlabel=Met

Prompt: Hello, I need to know if CCOC(=O)C(=O)Cc1cccnn1 has measured growth not below 90%. Thanks!
Response: Met

Prompt: Hello, I need to know if N#Cc1ccc(-n2cnc(NC(=O)[C@H]3CCN(C#N)C3)c2)cc1 has measured growth not below 90%. Thanks!
Response: Not met

Prompt: Hello, I need to know if CCOC(=O)C(CCC1=NC(C)(C)CC(C)O1)C(=O)OCC (stereo not given) has measured growth not below 90%. Thanks!
Response: Not met
